Source listed as patent US20240182911A1.

- system: T1, angiotensin II type 1 receptor (AT1R) with FLAG peptide fused to its N-terminus (human, UniProt P30556 2-359)
- T1 construct: also called AT1R-angiotensin II complex
- T1 sequence: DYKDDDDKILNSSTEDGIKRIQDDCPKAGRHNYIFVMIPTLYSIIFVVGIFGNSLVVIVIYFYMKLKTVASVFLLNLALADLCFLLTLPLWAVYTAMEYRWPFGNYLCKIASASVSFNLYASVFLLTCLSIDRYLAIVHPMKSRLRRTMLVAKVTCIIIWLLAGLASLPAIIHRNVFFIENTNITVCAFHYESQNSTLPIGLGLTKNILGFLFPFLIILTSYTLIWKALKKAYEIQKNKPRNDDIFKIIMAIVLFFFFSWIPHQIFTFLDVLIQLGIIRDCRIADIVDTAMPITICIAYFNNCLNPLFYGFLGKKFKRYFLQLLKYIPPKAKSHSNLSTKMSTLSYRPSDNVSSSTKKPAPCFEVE
- assay.explanation: on-yeast binding assay: yeast-displayed nanobody, titration of AT1R-angiotensin II complex, single replicate, EC50 from curve fit
pEC50: −log10 of the molar value.
Output true (1) for pEC50 not less than 7; output false (0) otherwise.

>>> classification("AT110i101 (VHH, also called AT110 I98V; dominant mutation 198V (so in the source)) VHH: QVQLQESGGGLVQAGGSLRLSCAASGNIFDADIMGWYRQAPGKERELVASITDGGSTNYADSVKGRFTISRDNAKNTVYLQMNSLKPEDTAVYYCAAVAYPDIPTYFDYDSDYFYWGQGTQVTVSS")
"true (1)"
>>> classification("AT110 (VHH, also called nanobody AT110) VHH: QVQLQESGGGLVQAGGSLRLSCAASGNIFDADIMGWYRQAPGKERELVASITDGGSTNYADSVKGRFTISRDNAKNTVYLQMNSLKPEDTAVYYCAAIAYPDIPTYFDYDSDYFYWGQGTQVTVSS")
"false (0)"
>>> classification("AT110 R45C (VHH, also called dominant mutation R45C) VHH: QVQLQESGGGLVQAGGSLRLSCAASGNIFDADIMGWYRQAPGKECELVASITDGGSTNYADSVKGRFTISRDNAKNTVYLQMNSLKPEDTAVYYCAAIAYPDIPTYFDYDSDYFYWGQGTQVTVSS")
"true (1)"
>>> classification("AT110i102 (VHH) VHH: QVQLQESGGGLVQAGGSLRLSCAASGNIFDADIMGWYRQAPGKERELVASITDGGSTNYADSVKGHFTISRDNAKNTVYLQMNSLKPEDTAVYYCAAVAYPDIPTYFDYDSDYFYWGQGTQVTVSS")
"true (1)"
>>> classification("AT110 Y113H (VHH, also called single mutation Y113H) VHH: QVQLQESGGGLVQAGGSLRLSCAASGNIFDADIMGWYRQAPGKERELVASITDGGSTNYADSVKGRFTISRDNAKNTVYLQMNSLKPEDTAVYYCAAIAYPDIPTYFDYDSDHFYWGQGTQVTVSS")
"true (1)"
>>> classification("AT110i103 (VHH) VHH: QVQLQESGGGLVQAGGSLRLSCAASGNIFDADIMGWYRQAPGKERELVASITDGGSTNYADSVKGHFTISRDNAKNTVYLQMNSLKPEDTAVYYCAAVAYPDIPTYFDYDSDHFYWGQGTQVTVSS")
"true (1)"
